The entries below come with measured Avg. IC50, human hemolysis assay values attached.
biological target: human C5 protein (human, UniProt P01031 19-673; P01031 678-1676); assay: cell-based or functional assay
Positions of bridges follow the written chain, without caps; N, C: chain ends. Non-standard residues stand in square brackets, D forms with d. Primed or numbered codes have the meaning given here. Trp(7-aza) = N[C@@H](Cc1c[nH]c2ncccc12)C(=O)O; mXylyl(4) = bridging moiety between residues; Phg = N[C@H](C(=O)O)c1ccccc1; Tle = CC(C)(C)[C@H](N)C(=O)O; NMeS = CN[C@@H](CO)C(=O)O; Nva = CCC[C@H](N)C(=O)O
Numeric only. Scale: nM

Data request: Entry Ac-[Nva]CYEN[Tle]Y[Trp(7-aza)]EYP[Phg]P-NH2 (SMILES CCC[C@H](NC(C)=O)C(=O)N[C@@H](CS)C(=O)N[C@@H](Cc1ccc(O)cc1)C(=O)N[C@@H](CCC(=O)O)C(=O)N[C@@H](CC(N)=O)C(=O)N[C@H](C(=O)N[C@@H](Cc1ccc(O)cc1)C(=O)N[C@@H](Cc1c[nH]c2ncccc12)C(=O)N[C@@H](CCC(=O)O)C(=O)N[C@@H](Cc1ccc(O)cc1)C(=O)N1CCC[C@H]1C(=O)N[C@H](C(=O)N1CCC[C@H]1C(N)=O)c1ccccc1)C(C)(C)C) [R3003] has what Avg. IC50, human hemolysis assay?
Data returned: 13.9

Data request: Entry Ac-[Nva]C[Phg]A[Trp(7-aza)]EY[NMeS]HC[Nva]-NH2 (linker 2-10 via mXylyl(4)) [R3033] has what Avg. IC50, human hemolysis assay?
Data returned: 131
